# measured target: human Y4 receptor (human, UniProt P50391 1-375)
# Sequence (P50391 whole entry): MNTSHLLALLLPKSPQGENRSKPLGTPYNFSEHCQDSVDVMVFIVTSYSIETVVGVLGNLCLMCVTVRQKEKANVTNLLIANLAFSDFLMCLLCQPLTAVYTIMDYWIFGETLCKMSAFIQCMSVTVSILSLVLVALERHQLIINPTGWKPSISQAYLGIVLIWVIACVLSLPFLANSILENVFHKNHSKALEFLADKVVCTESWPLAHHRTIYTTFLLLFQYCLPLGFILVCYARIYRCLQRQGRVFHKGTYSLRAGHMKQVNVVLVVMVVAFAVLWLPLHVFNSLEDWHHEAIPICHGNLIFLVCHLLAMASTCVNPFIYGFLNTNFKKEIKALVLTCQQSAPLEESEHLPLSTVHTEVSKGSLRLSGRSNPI
# experiment notes: 125I-PP displacement
quantity: IC50 (nM)

Completed entries (count: 4):
binder	quantity	unit annotation	recorded measurement
APLEPEYPGDDATPQQMAHYAAELRRYINKLTRPRY [4057139]	IC50	nM	0.078
GAPLEPVYPGDNATPEQMARYAAELRRYINKLTRPRY [4057163]	IC50	nM	0.088
PAPLEPVYPGDNATPEQMARYAADLRRYINKLTRPRY [4057335]	IC50	nM	0.08
DAPLEPEYPGDDATPQQMARYAAELRRYINKLTRPRY [4057135]	IC50	nM	0.097

P: PAPLEPEYPGDDATPQQMAHYAAELRRYINKLTRPRY [4057140]
Q: PAPLEPVYPGDNATPEQIAKYAADLRRYINKLTRPRY [4057144]
(Q) Task for the reader: decide whether P or Q has the larger IC50. Select an item and report its label.
(A) P
(P: 0.126 nM, Q: 0.083 nM)

I: PAPLEPVYPGDDATPQQMAKYAADLRRYINKLTRPRY [4057273]
II: PAPLEPTYPGDDATPQEMAKYAAELRRYINKLTRPRY [4057444]
(Q) # return whichever of I and II has the smaller IC50 Select an item and report its label.
(A) I
(I: 0.061 nM, II: 0.116 nM)
